Cited source: paper PMC6026642

assay: in vivo; conditions: both, Wistar, rat, im, 2 mg/kg
No end group written: not given here.
reportedMetric: half-life (h)

recordsequence="FFHHIFRGIVHVGKTIHRLVTG [Piscidin 1]" quantitativereadout=23.5

---

test: in vivo; conditions: both, Wistar, rat, po, 2 mg/kg
No end group written: not given here.
reportedMetric: Cmax (ng/mL)

recordsequence="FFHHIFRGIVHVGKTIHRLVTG [Piscidin 1]" reportedmetric=Cmax quantitativereadout=730

---

assay: in vivo; details: both, Wistar, rat, po, 2 mg/kg
No end group written: not given here.
reportedMetric: AUC(0-inf) (ng·h/mL)

recordsequence="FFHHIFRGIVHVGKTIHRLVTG [Piscidin 1]" reportedmetric=AUC(0-inf) unitabbrev=ng·h/mL quantitativereadout=9630

---

experiment: in vivo; details: both, Wistar, rat, im, 2 mg/kg
No end group written: not given here.
reportedMetric: Cmax (ng/mL)

recordsequence="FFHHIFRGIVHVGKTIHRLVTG [Piscidin 1]" reportedmetric=Cmax quantitativereadout=2370

---

assay: in vivo; conditions: both, Wistar, rat, po, 2 mg/kg
No end group written: not given here.
reportedMetric: MRT (h)

recordsequence="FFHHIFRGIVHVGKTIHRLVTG [Piscidin 1]" quantitativereadout=26.8

---

assay: in vivo; details: both, Wistar, rat, po, 2 mg/kg
No end group written: not given here.
reportedMetric: bioavailability (%)

recordsequence="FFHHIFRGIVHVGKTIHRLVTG [Piscidin 1]" unitabbrev=% quantitativereadout=37.2

---

experiment: in vivo; settings: both, Wistar, rat, po, 2 mg/kg
No end group written: not given here.
reportedMetric: Tmax (min)

recordsequence="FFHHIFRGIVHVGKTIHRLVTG [Piscidin 1]" unitabbrev=min quantitativereadout=30

---

assay: in vivo; conditions: both, Wistar, rat, iv, 2 mg/kg
No end group written: not given here.
reportedMetric: MRT

recordsequence="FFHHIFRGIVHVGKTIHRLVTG [Piscidin 1]" reportedmetric=MRT result="22.8 h"

---

assay: in vivo; conditions: both, Wistar, rat, im, 2 mg/kg
No end group written: not given here.
reportedMetric: Tmax (min)

recordsequence="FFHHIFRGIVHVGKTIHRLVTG [Piscidin 1]" reportedmetric=Tmax quantitativereadout=20

---

assay: in vivo; settings: both, Wistar, rat, iv, 2 mg/kg
No end group written: not given here.
reportedMetric: half-life (h)

recordsequence="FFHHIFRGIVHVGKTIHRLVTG [Piscidin 1]" unitabbrev=h quantitativereadout=17

---

experiment: in vivo; details: both, Wistar, rat, iv, 2 mg/kg
No end group written: not given here.
reportedMetric: clearance (mL/min/kg)

recordsequence="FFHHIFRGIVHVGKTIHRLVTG [Piscidin 1]" reportedmetric=clearance unitabbrev=mL/min/kg quantitativereadout=1.12

---

assay: in vivo; conditions: both, Wistar, rat, im, 2 mg/kg
No end group written: not given here.
reportedMetric: MRT (h)

recordsequence="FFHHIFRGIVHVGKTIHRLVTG [Piscidin 1]" reportedmetric=MRT quantitativereadout=30.1

---

assay: in vivo; details: both, Wistar, rat, im, 2 mg/kg
No end group written: not given here.
reportedMetric: bioavailability (%)

recordsequence="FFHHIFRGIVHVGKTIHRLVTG [Piscidin 1]" reportedmetric=bioavailability quantitativereadout=73.2

---

experiment: in vivo; conditions: both, Wistar, rat, iv, 2 mg/kg
No end group written: not given here.
reportedMetric: AUC(0-inf) (ng·h/mL)

recordsequence="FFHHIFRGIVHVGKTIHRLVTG [Piscidin 1]" reportedmetric=AUC(0-inf) quantitativereadout=25900

---

assay: in vivo; details: both, Wistar, rat, im, 2 mg/kg
No end group written: not given here.
reportedMetric: AUC(0-inf) (ng·h/mL)

recordsequence="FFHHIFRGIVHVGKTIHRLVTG [Piscidin 1]" unitabbrev=ng·h/mL quantitativereadout=19000
